experiment: AUC (0 to infinity) in cynomolgus monkey at 0.3 mg/kg, iv administered as single dose by LC-MS/MS method; assay type: ADME, organism-based, Macaca fascicularis; set-up: time infinity, dose 0.3 mg/kg, route intravenous; conditions: plasma
QUANTITY_NAME: AUC(0-inf) (µg·h/mL)
Answer with a number only, understood to be in µg·h/mL.

Consider the compound "C[C@H]1O[C@@H](O[C@H]2[C@H](O)[C@@H](O)[C@@H](O[C@H]3[C@H](O)CN[C@@H]3CO)O[C@@H]2CO)[C@H](O)[C@@H](O)[C@@H]1O" and give its measured AUC(0-inf).
2.01

---

test: Half life in F344 rat at 3 mg/kg, po administered as single dose by LC-MS/MS method; assay type: ADME, organism-based; parameters: dose 3 mg/kg, route oral; conditions: in vivo
QUANTITY_NAME: half-life (h)
Answer with a number only, understood to be in h.

Consider the compound "C[C@H]1O[C@@H](O[C@H]2[C@H](O)[C@@H](O)[C@@H](O[C@H]3[C@H](O)CN[C@@H]3CO)O[C@@H]2CO)[C@H](O)[C@@H](O)[C@@H]1O" and give its measured half-life.
4.16

---

assay: AUC (0 to infinity) in F344 rat at 3 mg/kg, iv administered as single dose by LC-MS/MS method; format: ADME, organism-based; parameters: time infinity, dose 3 mg/kg, route intravenous; settings: plasma
QUANTITY_NAME: AUC(0-inf) (ng·h/mL)
Answer with a number only, understood to be in ng·h/mL.

Consider the molecule "C[C@H]1O[C@@H](O[C@H]2[C@H](O)[C@@H](O)[C@@H](O[C@H]3[C@H](O)CN[C@@H]3CO)O[C@@H]2CO)[C@H](O)[C@@H](O)[C@@H]1O" and give its measured AUC(0-inf).
18800

---

experiment: Oral bioavailability in cynomolgus monkey at 10 mg/kg administered as single dose by LC-MS/MS method; format: ADME, organism-based, Macaca fascicularis; settings: in vivo
QUANTITY_NAME: bioavailability
Returns: string containing the numeric result and its unit.

Consider the molecule "C[C@H]1O[C@@H](O[C@H]2[C@H](O)[C@@H](O)[C@@H](O[C@H]3[C@H](O)CN[C@@H]3CO)O[C@@H]2CO)[C@H](O)[C@@H](O)[C@@H]1O" and give its measured bioavailability.
1.2%

---

assay: AUClast in F344 rat at 10 mg/kg, iv administered as single dose by LC-MS/MS method; type: ADME, organism-based; parameters: time 0 - last, dose 10 mg/kg, route intravenous; conditions: plasma
QUANTITY_NAME: AUC(0-t) (ng·h/mL)
Answer with a number only, understood to be in ng·h/mL.

Consider the molecule "C[C@H]1O[C@@H](O[C@H]2[C@H](O)[C@@H](O)[C@@H](O[C@H]3[C@H](O)CN[C@@H]3CO)O[C@@H]2CO)[C@H](O)[C@@H](O)[C@@H]1O" and give its measured AUC(0-t).
53000

---

assay: AUC (0 to infinity) in cynomolgus monkey at 3 mg/kg, iv administered as single dose by LC-MS/MS method; format: ADME, organism-based, Macaca fascicularis; parameters: time infinity, dose 3 mg/kg, route intravenous; conditions: plasma
QUANTITY_NAME: AUC(0-inf) (ng·h/mL)
Answer with a number only, understood to be in ng·h/mL.

Consider the compound "C[C@H]1O[C@@H](O[C@H]2[C@H](O)[C@@H](O)[C@@H](O[C@H]3[C@H](O)CN[C@@H]3CO)O[C@@H]2CO)[C@H](O)[C@@H](O)[C@@H]1O" and give its measured AUC(0-inf).
18200

---

experiment: AUClast in cynomolgus monkey at 0.3 mg/kg, po administered as single dose by LC-MS/MS method; assay type: ADME, organism-based, Macaca fascicularis; parameters: dose 0.3 mg/kg, route oral, time 0 - last; details: plasma
QUANTITY_NAME: AUC(0-t) (ng·h/mL)
Answer with a number only, understood to be in ng·h/mL.

Consider the compound "C[C@H]1O[C@@H](O[C@H]2[C@H](O)[C@@H](O)[C@@H](O[C@H]3[C@H](O)CN[C@@H]3CO)O[C@@H]2CO)[C@H](O)[C@@H](O)[C@@H]1O" and give its measured AUC(0-t).
15

---

experiment: Oral bioavailability in F344 rat at 1 mg/kg administered as single dose by LC-MS/MS method; assay type: ADME, organism-based; settings: in vivo
QUANTITY_NAME: bioavailability (%)
Answer with a number only, understood to be in %.

Consider the compound "C[C@H]1O[C@@H](O[C@H]2[C@H](O)[C@@H](O)[C@@H](O[C@H]3[C@H](O)CN[C@@H]3CO)O[C@@H]2CO)[C@H](O)[C@@H](O)[C@@H]1O" and give its measured bioavailability.
2.33

---

assay: Cmax in cynomolgus monkey at 0.3 mg/kg, po administered as single dose by LC-MS/MS method; assay type: ADME, organism-based, Macaca fascicularis; set-up: dose 0.3 mg/kg, route oral; conditions: in vivo
QUANTITY_NAME: Cmax (ng/mL)
Answer with a number only, understood to be in ng/mL.

Consider the compound "C[C@H]1O[C@@H](O[C@H]2[C@H](O)[C@@H](O)[C@@H](O[C@H]3[C@H](O)CN[C@@H]3CO)O[C@@H]2CO)[C@H](O)[C@@H](O)[C@@H]1O" and give its measured Cmax.
5.23

---

assay: Cmax in cynomolgus monkey at 1 mg/kg, po administered as single dose by LC-MS/MS method; format: ADME, organism-based, Macaca fascicularis; parameters: dose 1 mg/kg, route oral; conditions: in vivo
QUANTITY_NAME: Cmax (ng/mL)
Answer with a number only, understood to be in ng/mL.

Consider the compound "C[C@H]1O[C@@H](O[C@H]2[C@H](O)[C@@H](O)[C@@H](O[C@H]3[C@H](O)CN[C@@H]3CO)O[C@@H]2CO)[C@H](O)[C@@H](O)[C@@H]1O" and give its measured Cmax.
15.3

---

test: Volume of distribution at steady state in F344 rat at 10 mg/kg, iv administered as single dose by LC-MS/MS method; type: ADME, organism-based; set-up: dose 10 mg/kg, route intravenous; conditions: in vivo, read-out: Vdss
QUANTITY_NAME: Vd
Returns: string containing the numeric result and its unit.

Consider the compound "C[C@H]1O[C@@H](O[C@H]2[C@H](O)[C@@H](O)[C@@H](O[C@H]3[C@H](O)CN[C@@H]3CO)O[C@@H]2CO)[C@H](O)[C@@H](O)[C@@H]1O" and give its measured Vd.
0.222 L/kg

---

test: Tmax in cynomolgus monkey at 0.3 mg/kg, po administered as single dose by LC-MS/MS method; type: ADME, organism-based, Macaca fascicularis; set-up: dose 0.3 mg/kg, route oral; conditions: in vivo
QUANTITY_NAME: Tmax (h)
Answer with a number only, understood to be in h.

Consider the compound "C[C@H]1O[C@@H](O[C@H]2[C@H](O)[C@@H](O)[C@@H](O[C@H]3[C@H](O)CN[C@@H]3CO)O[C@@H]2CO)[C@H](O)[C@@H](O)[C@@H]1O" and give its measured Tmax.
1.75

---

test: Oral bioavailability in cynomolgus monkey at 1 mg/kg administered as single dose by LC-MS/MS method; format: ADME, organism-based, Macaca fascicularis; conditions: in vivo
QUANTITY_NAME: bioavailability

Consider the compound "C[C@H]1O[C@@H](O[C@H]2[C@H](O)[C@@H](O)[C@@H](O[C@H]3[C@H](O)CN[C@@H]3CO)O[C@@H]2CO)[C@H](O)[C@@H](O)[C@@H]1O" and give its measured bioavailability.
0.983%

---

experiment: Half life in cynomolgus monkey at 3 mg/kg, iv administered as single dose by LC-MS/MS method; type: ADME, organism-based, Macaca fascicularis; set-up: dose 3 mg/kg, route intravenous; conditions: in vivo
QUANTITY_NAME: half-life (h)
Answer with a number only, understood to be in h.

Consider the molecule "C[C@H]1O[C@@H](O[C@H]2[C@H](O)[C@@H](O)[C@@H](O[C@H]3[C@H](O)CN[C@@H]3CO)O[C@@H]2CO)[C@H](O)[C@@H](O)[C@@H]1O" and give its measured half-life.
25.1

---

assay: Half life in F344 rat at 1 mg/kg, po administered as single dose by LC-MS/MS method; type: ADME, organism-based; parameters: dose 1 mg/kg, route oral; details: in vivo
QUANTITY_NAME: half-life (h)
Answer with a number only, understood to be in h.

Consider the compound "C[C@H]1O[C@@H](O[C@H]2[C@H](O)[C@@H](O)[C@@H](O[C@H]3[C@H](O)CN[C@@H]3CO)O[C@@H]2CO)[C@H](O)[C@@H](O)[C@@H]1O" and give its measured half-life.
1.81
